# target: APP-TAP-AICD (human, UniProt P05067 18-695)
# test: streptavidin purification of APP-TAP-AICD from brain homogenate; LTQ-FT semiquantitative method, transgenic mouse 75 vs control mouse 72
Below: a set of entries, each annotated with reported probability that this protein is enriched.

Prompt: What does the record list as probability that this protein is enriched for phosphoglycerate mutase 1 (enzyme, mouse, UniProt Q9DBJ1 1-254, looked up, also called PGAM1_MOUSE) MAAYKLVLIRHGESAWNLENRFSGWYDADLSPAGHEEAKRGGQALRDAGYEFDICFTSVQKRAIRTLWTVLDAIDQMWLPVVRTWRLNERHYGGLTGLNKAETAAKHGEAQVKIWRRSYDVPPPPMEPDHPFYSNISKDRRYADLTEDQLPSCESLKDTIARALPFWNEEIVPQIKEGKRVLIAAHGNSLRGIVKHLEGLSEEAIMELNLPTGIPIVYELDKNLKPIKPMQFLGDEETVRKAMEAVAAQGKVKK ?
Response: 0.86

Now examine the next entry.
Prompt: Given Malate dehydrogenase; mitochondrial precursor (enzyme, mouse, UniProt P08249 25-338, looked up) AKVAVLGASGGIGQPLSLLLKNSPLVSRLTLYDIAHTPGVAADLSHIETRANVKGYLGPEQLPDCLKGCDVVVIPAGVPRKPGMTRDDLFNTNATIVATLTAACAQHCPEAMVCIIANPVNSTIPITAEVFKKHGVYNPNKIFGVTTLDIVRANTFVAELKGLDPARVNVPVIGGHAGKTIIPLISQCTPKVDFPQDQLATLTGRIQEAGTEVVKAKAGAGSATLSMAYAGARFVFSLVDAMNGKEGVVECSFVQSKETECTYFSTPLLLGKKGLEKNLGIGKITPFEEKMIAEAIPELKASIKKGEDFVKNMK , state its recorded probability that this protein is enriched.
Response: 0.86
